Values from ChEMBL document CHEMBL1131203

Assay: Absolute oral bioavailability was evaluated in 100% PEG solution at a dose of 20 mg/kg orally
Format: ADME, organism-based
Conditions: eutheria, in vivo
OBSERVABLE: bioavailability
Don't forget the unit after the number, please.

// lookup bioavailability for C[C@](Cc1c[nH]c2ccccc12)(NC(=O)OC1C2CC3CC(C2)CC1C3)C(=O)N[C@H](CO)Cc1ccccc1 (stereo partly specified)
9.6%

---

Experiment: Pharmacokinetic parameter half-life was evaluated in 0.5% methylcellulose suspension at a dose of 20 mg/kg orally
Type: ADME, organism-based
Design: dose 20 mg/kg, route oral
Conditions: in vivo, po
OBSERVABLE: half-life (h)
Provide the reading as a plain figure in h.

Item C[C@](Cc1c[nH]c2ccccc12)(NC(=O)OC1C2CC3CC(C2)CC1C3)C(=O)N[C@@H]1CCCC[C@H]1O (stereo partly specified) has what recorded half-life?
1

---

Assay: Ratio of IC50 towards CCK-A receptor and CCK-B receptor
OBSERVABLE: Ratio
# print the numeric value only

Find the recorded Ratio belonging to C[C@](Cc1c[nH]c2ccccc12)(NC(=O)OC1C2CC3CC(C2)CC1C3)C(=O)NC1CC2CCC1C2 (stereo in doubt; 21) and report it.
18.6

Name the reported Ratio value associated with the compound C[C@](Cc1c[nH]c2ccccc12)(NC(=O)OC1C2CC3CC(C2)CC1C3)C(=O)NC1CCCCC1C#N (some centres undefined)
429

So what's the measured Ratio for this one? COC[C@H]1CCCN1NC(=O)[C@@](C)(Cc1c[nH]c2ccccc12)NC(=O)OC1C2CC3CC(C2)CC1C3 (some centres undefined)
1370

I have this compound here, C[C@](Cc1c[nH]c2ccccc12)(NC(=O)OC1C2CC3CC(C2)CC1C3)C(=O)NC(CC(=O)O)CC(=O)O (some centres undefined) , and I need its recorded Ratio.
8.9

---

Test: Pharmacokinetic parameter tmax evaluated in 0.5% methylcellulose suspension at a dose of 20 mg/kg orally
Type: ADME, organism-based
Parameters: dose 20 mg/kg, route oral
Conditions: in vivo, po
OBSERVABLE: Tmax (h)
Response body: numeric value in h, unit text excluded.

Would you kindly share the measured Tmax for C[C@](Cc1c[nH]c2ccccc12)(NC(=O)OC1C2CC3CC(C2)CC1C3)C(=O)N[C@H](CO)Cc1ccccc1 (stereo partly specified) ?
2.9

---

Assay: Pharmacokinetic parameter AUC was evaluated in 100% PEG solution at a dose of 20 mg/kg orally
Type: ADME, organism-based
Parameters: dose 20 mg/kg, route oral
Details: in vivo, po
OBSERVABLE: AUC (ng·h/mL)
Give your result in ng·h/mL as a bare value.

What value of measured AUC is listed for C[C@](Cc1c[nH]c2ccccc12)(NC(=O)OC1C2CC3CC(C2)CC1C3)C(=O)N[C@@H]1CCCC[C@H]1O (some centres not stated) ?
724

Quick check: AUC of C[C@](Cc1c[nH]c2ccccc12)(NC(=O)OC1C2CC3CC(C2)CC1C3)C(=O)N[C@H](CO)Cc1ccccc1 (some centres not stated) ?
886

---

Assay: Maximum plasma concentration was evaluated in Hp-beta-CD solution at a dose of 20 mg/kg orally
Type: ADME, organism-based
Design: dose 20 mg/kg, route oral
Conditions: po
OBSERVABLE: Cmax (ng/mL)
Report the figure in ng/mL without appending any unit label.

Give its Cmax value. Item: C[C@](Cc1c[nH]c2ccccc12)(NC(=O)OC1[C@H]2C[C@@H]3C[C@@H](C[C@H]1C3)C2)C(=O)NC[C@H](NC(=O)CCC(=O)O)c1ccccc1 (stereo partly specified)
5

---

Test: Pharmacokinetic parameter AUC was evaluated in 0.5% methylcellulose suspension at a dose of 20 mg/kg orally
Format: ADME, organism-based
Parameters: dose 20 mg/kg, route oral
Conditions: in vivo, po
OBSERVABLE: AUC
The reply must contain the numeric value and, after it, the unit.

# get_value(readout='AUC', item= C[C@](Cc1c[nH]c2ccccc12)(NC(=O)OC1C2CC3CC(C2)CC1C3)C(=O)N[C@H](CO)Cc1ccccc1 (stereo partly specified) )
188 ng·h/mL

---

Assay: Maximum plasma concentration was evaluated in 100% of PEG solution at a dose of 20 mg/kg orally
Type: ADME, organism-based
Design: dose 20 mg/kg, route oral
Conditions: po
OBSERVABLE: Cmax (ng/mL)
Return type: number; implicit unit ng/mL.

What value of Cmax has been reported for the following compound? C[C@](Cc1c[nH]c2ccccc12)(NC(=O)OC1C2CC3CC(C2)CC1C3)C(=O)N[C@@H]1CCCC[C@H]1O (stereo partly specified)
219

---

Assay: Pharmacokinetic parameter tmax was evaluated in DMA:H2O solution at a dose of 20 mg/kg orally
Type: ADME, organism-based
Design: dose 20 mg/kg, route oral
Settings: in vivo, po
OBSERVABLE: Tmax (h)
Give the number; h is assumed, so skip it.

Fill in: Tmax of C[C@](Cc1c[nH]c2ccccc12)(NC(=O)OC1C2CC3CC(C2)CC1C3)C(=O)N[C@H](CO)Cc1ccccc1 (stereo partly specified) is ___
1.2

---

Test: Absolute oral bioavailability was evaluated in saline solution at a dose of 20 mg/kg orally
Assay type: ADME, organism-based
Conditions: eutheria, in vivo
OBSERVABLE: bioavailability (%)
Number in %, nothing else.

What value of bioavailability has been reported for the following molecule? C[C@](Cc1c[nH]c2ccccc12)(NC(=O)OC1[C@H]2C[C@@H]3C[C@@H](C[C@H]1C3)C2)C(=O)NC[C@H](NC(=O)CCC(=O)O)c1ccccc1 (stereo partly specified) [CI-988]
3.2

---

Test: Pharmacokinetic parameter AUC was evaluated in DMA:H2O solution at a dose of 20 mg/kg orally
Assay type: ADME, organism-based
Parameters: dose 20 mg/kg, route oral
Details: in vivo, po
OBSERVABLE: AUC (ng·h/mL)
Reply numerically in ng·h/mL, unit not repeated.

Recorded AUC for C[C@](Cc1c[nH]c2ccccc12)(NC(=O)OC1C2CC3CC(C2)CC1C3)C(=O)N[C@H](CO)Cc1ccccc1 (stereo partly specified) , please?
890

---

Assay: Oral bioavailability (dosed in HP-beta-CD solution) (dose 20 mg/kg p.o.)
Assay type: ADME, organism-based
Settings: eutheria, in vivo
Would you mind telling me the reported bioavailability of each entry?
Entry rule: numbers only, all in %.

Report bioavailability for C[C@](Cc1c[nH]c2ccccc12)(NC(=O)OC1C2CC3CC(C2)CC1C3)C(=O)N[C@@H]1CCCC[C@H]1O (some centres not stated) please.
28

Given C[C@](Cc1c[nH]c2ccccc12)(NC(=O)OC1C2CC3CC(C2)CC1C3)C(=O)N[C@H](CO)Cc1ccccc1 (some centres not stated) , state its recorded bioavailability.
16

---

Molecular target: Cholecystokinin receptor type A (Rattus norvegicus, UniProt P30551)
Sequence (P30551 whole entry): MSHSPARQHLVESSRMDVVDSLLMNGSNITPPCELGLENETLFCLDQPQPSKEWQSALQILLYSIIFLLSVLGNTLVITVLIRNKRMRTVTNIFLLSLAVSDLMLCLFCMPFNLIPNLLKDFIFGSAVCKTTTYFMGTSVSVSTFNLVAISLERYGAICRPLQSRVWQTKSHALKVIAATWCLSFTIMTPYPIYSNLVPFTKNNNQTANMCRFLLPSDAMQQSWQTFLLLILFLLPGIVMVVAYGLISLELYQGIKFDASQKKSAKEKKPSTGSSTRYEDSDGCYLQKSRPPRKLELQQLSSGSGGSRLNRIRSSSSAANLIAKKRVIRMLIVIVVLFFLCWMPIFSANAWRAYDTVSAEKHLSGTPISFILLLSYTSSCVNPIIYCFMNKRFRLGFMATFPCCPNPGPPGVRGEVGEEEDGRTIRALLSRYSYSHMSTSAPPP
Would you kindly list IC50 for each of these compounds?
The figure you give is taken to be in µM; do not add the unit.

Fill blank: measured IC50 of the compound COC(=O)CC(CC(=O)OC)NC(=O)[C@@](C)(Cc1c[nH]c2ccccc12)NC(=O)OC1C2CC3CC(C2)CC1C3 (stereo partly drawn) is ____.
1.17

What value of IC50 has been recorded for this entry: C[C@](Cc1c[nH]c2ccccc12)(NC(=O)OC1C2CC3CC(C2)CC1C3)C(=O)NC1CCCCC1O (stereo partly drawn)
1.38

Endpoint output: IC50 of C[C@](Cc1c[nH]c2ccccc12)(NC(=O)OC1C2CC3CC(C2)CC1C3)C(=O)NC1(C(=O)O)CCCCC1 (stereo partly drawn) . Value?
1.53
